target: Prostaglandin G/H synthase 1 (Homo sapiens) (UniProt P23219); assay: Inhibition of COX1 in human platelets using arachidonic acid as substrate assessed as residual activity at 50 uM preincubated for 15 mins before substrate addition measured after 10 mins
Sequence (P23219 whole entry): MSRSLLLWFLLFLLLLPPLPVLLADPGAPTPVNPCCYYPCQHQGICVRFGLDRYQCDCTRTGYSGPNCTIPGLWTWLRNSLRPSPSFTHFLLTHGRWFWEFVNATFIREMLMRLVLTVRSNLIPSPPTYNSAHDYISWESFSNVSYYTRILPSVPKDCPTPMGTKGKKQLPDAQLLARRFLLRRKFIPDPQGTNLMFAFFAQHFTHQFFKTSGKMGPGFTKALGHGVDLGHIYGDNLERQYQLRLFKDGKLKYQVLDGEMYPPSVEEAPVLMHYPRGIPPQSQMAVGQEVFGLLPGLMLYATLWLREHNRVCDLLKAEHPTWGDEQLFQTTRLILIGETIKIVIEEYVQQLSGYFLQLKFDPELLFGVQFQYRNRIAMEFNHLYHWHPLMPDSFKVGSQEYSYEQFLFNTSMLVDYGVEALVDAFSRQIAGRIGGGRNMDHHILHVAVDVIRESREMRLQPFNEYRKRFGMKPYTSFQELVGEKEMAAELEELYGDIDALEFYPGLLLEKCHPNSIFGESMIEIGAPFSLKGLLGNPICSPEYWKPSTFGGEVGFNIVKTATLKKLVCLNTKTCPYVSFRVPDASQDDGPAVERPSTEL
observed.property: Activity

Clc1ccc(-c2csc(Nc3ccc(N4CCOCC4)cc3)n2)cc1    > 70%
O=S(=O)(c1ccc(-c2csc(Nc3ccc(Cl)cc3)n2)cc1)N1CCOCC1    > 70%

Note down Activity recorded for `COc1ccc(Nc2nc(-c3ccc(Cl)cc3)cs2)c(OC)c1`
> 70%

src = ChEMBL document CHEMBL3352533
